target: human EAAT3 (Homo sapiens); construct: expressed in transfected cells; assay: FLIPR Membrane Potential (FMP) assay, antagonist potency at human EAAT3; assay type: cell-based; conditions: HEK-293 cells stably expressing human EAAT3; L-glutamate as agonist at EC80; antagonist applied 15 min before; Kb by Cheng-Prusoff equation
Examples of molecules with documented Kb follow.
assayEndpoint: Kb (µM)

| compoundStructure | systemName | observed |
| --- | --- | --- |
| CC(C)c1ncncc1-c1cc(C(=O)NC(C)(C)CO)cc(-c2ccc(Cl)cc2)n1 | human EAAT3 (Homo sapiens) | 0.2 |
| Cc1ccc(-c2cc(C(=O)NC(C)(C)C)cc(-c3cncnc3C(C)C)n2)cc1F | human EAAT3 (Homo sapiens) | 0.25 |
| CC(C)c1ncncc1-c1cc(C(=O)NC(C)(C)C)cc(-c2ccc(C(F)(F)F)cc2)n1 | human EAAT3 (Homo sapiens) | 0.11 |
| Cc1ccncc1-c1cc(C(=O)NC(C)(C)C)cc(-c2ccc(Cl)cc2)n1 | human EAAT3 (Homo sapiens) | 0.22 |

====

Examples of molecules with documented Kb follow.
target: human EAAT3 (Homo sapiens, UniProt P43005); construct: expressed in transfected cells; assay: FLIPR Membrane Potential (FMP) assay, antagonist potency at human EAAT3; format: cell-based; conditions: HEK-293 cells stably expressing human EAAT3; L-glutamate as agonist at EC80; antagonist applied 15 min before; Kb by Cheng-Prusoff equation

| molecule | Kb (nM) |
| --- | --- |
| Cc1ncncc1-c1cc(C(=O)NC(C)(C)C)cc(-c2ccc(F)cc2)n1 [Example 20] | 480 |
| CCC(C)(C)NC(=O)c1cc(-c2ccc(F)cc2)nc(-c2cncnc2C(C)C)c1 [Example 18] | 120 |
| CC(C)c1ncncc1-c1cc(C(=O)NC2(C)CCS(=O)(=O)C2)cc(-c2ccc(F)cc2)n1 (racemic) [Example 17] | 270 |
| CC(C)c1ccncc1-c1cc(C(=O)NC(C)(C)C)cc(-c2ccc(F)cc2)n1 [Example 27] | 170 |

====

molecular target: human EAAT3 (Homo sapiens); construct: expressed in transfected cells; assay: FLIPR Membrane Potential (FMP) assay, antagonist potency at human EAAT3; type: cell-based; settings: HEK-293 cells stably expressing human EAAT3; L-glutamate as agonist at EC80; antagonist applied 15 min before; Kb by Cheng-Prusoff equation

| compoundStructure | Kb, nM |
| --- | --- |
| Cc1cc(-c2cc(C(=O)NC(C)(C)C)cc(-c3cncnc3C(C)C)n2)ccc1F | 260 |
| CC(C)(C)NC(=O)c1cc(-c2ccc(Cl)cc2)nc(-c2cncnc2C(C)(C)C)c1 | 140 |
| CC(C)c1ncncc1-c1cc(C(=O)NC(C)(C)C)cc(-c2ccc(Cl)cc2)n1 | 100 |
| CC(C)c1ncncc1-c1cc(C(=O)NC(C)(C)C)cc(-c2ccc(Cl)c(F)c2)n1 | 260 |

====

Target: human EAAT3 (Homo sapiens, UniProt P43005)
Construct: expressed in transfected cells
Sequence (P43005 1-524): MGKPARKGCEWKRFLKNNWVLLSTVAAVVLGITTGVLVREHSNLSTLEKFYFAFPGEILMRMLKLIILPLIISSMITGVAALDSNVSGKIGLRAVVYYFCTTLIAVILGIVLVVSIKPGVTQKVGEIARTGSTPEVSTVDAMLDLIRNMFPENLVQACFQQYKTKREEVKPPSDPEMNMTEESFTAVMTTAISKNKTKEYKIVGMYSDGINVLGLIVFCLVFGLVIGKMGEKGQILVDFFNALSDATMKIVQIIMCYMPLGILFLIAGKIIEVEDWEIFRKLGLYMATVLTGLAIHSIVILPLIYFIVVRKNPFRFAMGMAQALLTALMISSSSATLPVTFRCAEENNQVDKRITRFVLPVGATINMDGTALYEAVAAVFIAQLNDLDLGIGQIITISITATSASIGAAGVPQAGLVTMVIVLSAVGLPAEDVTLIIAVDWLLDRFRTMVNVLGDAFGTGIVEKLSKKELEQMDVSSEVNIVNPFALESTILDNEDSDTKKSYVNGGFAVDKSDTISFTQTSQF
Experiment: FLIPR Membrane Potential (FMP) assay, antagonist potency at human EAAT3
Assay type: cell-based
Settings: HEK-293 cells stably expressing human EAAT3; L-glutamate as agonist at EC80; antagonist applied 15 min before; Kb by Cheng-Prusoff equation
Lab note: anything with Kb below 300 nM is marked true; values at 300 nM or higher are marked false.

| compoundStructure | labelValue |
| --- | --- |
| CC(C)c1ncncc1-c1cc(C(=O)NC(C)(C)C)cc(-c2ccc(F)cc2)n1 | true |
| CC(C)(C)NC(=O)c1cc(-c2ccc(C(F)(F)F)cc2)nc(-c2cncnc2C(C)(C)C)c1 | true |
| CC(C)c1ncncc1-c1cc(C(=O)NC(C)(C)C)cc(-c2ccc(F)c(F)c2)n1 | true |
| CCc1ncncc1-c1cc(C(=O)NC(C)(C)C)cc(-c2ccc(F)cc2)n1 | true |
| CC(C)c1ccncc1-c1cc(C(=O)NC(C)(C)C)cc(-c2ccc(C(F)(F)F)cc2)n1 | false |
| CC(C)(C)NC(=O)c1cc(-c2ccc(F)cc2)nc(-c2cncnc2C2CC2)c1 | false |
| CC(C)c1ccncc1-c1cc(C(=O)NC(C)(C)C)cc(-c2ccc(Cl)cc2)n1 | false |
| Cc1ccc(-c2cc(C(=O)NC(C)(C)C)cc(-c3cncnc3C(C)C)n2)cc1 | true |
| CC(C)(C)NC(=O)c1cc(-c2ccc(F)cc2)nc(-c2cncnc2C(C)(C)C)c1 | true |
| CC(C)c1ncncc1-c1cc(C(=O)NC(C)(C)C#N)cc(-c2ccc(Cl)cc2)n1 | false |
| CC(C)c1ncncc1-c1cc(C(=O)NC(C)(C)C)cc(-c2ccc(C3CC3)cc2)n1 | true |
| COc1ccc(-c2cc(C(=O)NC(C)(C)C)cc(-c3cncnc3C(C)C)n2)cc1 | false |
